Assay: Plasma pharmacokinetics of CX-5461 (HPLC-MS/MS, non-compartmental)
Assay type: in vivo, human
Details: human, plasma, intravenous, 325 mg/m2, 325 mg/m2; Time 0.5; individual patients; read-out: Day 1 CX-5461 plasma concentration
Readout: concentration at 0.5 h (ng/mL)
Numbers only, in ng/mL.

Lab note: Cc1cnc(CNC(=O)c2c(=O)c3ccc(N4CCCN(C)CC4)nc3n3c2sc2ccccc23)cn1 gave concentration at 0.5 h of 446

----------
Assay: Plasma pharmacokinetics of CX-5461 (HPLC-MS/MS, non-compartmental)
Type: in vivo, human
Settings: human, plasma, intravenous, 325 mg/m2, Dose level 325 (mg/m2); one patient per datapoint; read-out: Day 1 AUC
Readout: AUC (ng·h/mL)
Numbers only, in ng·h/mL.

Lab note: Cc1cnc(CNC(=O)c2c(=O)c3ccc(N4CCCN(C)CC4)nc3n3c2sc2ccccc23)cn1 gave AUC of 15000
